System: HT-29
method_summary: Growth inhibition of human HT-29 cells after 48 hrs by sulforhodamine B assay
Format: functional
condition_set: HT-29, 48 h
I'd be grateful if you could share measured GI50 for these entries.
Your answer should be a plain number; it is taken to be in µg/mL.

Param item = CCOC(=O)C1=C(C)NC(=O)NC1c1ccc(O)c(O)c1 (stereo not drawn) ; retrieve measured GI50.
37.8

Param item = CCOC(=O)C1=C(C)NC(=S)NC1c1ccc(SC)cc1 (stereo not drawn) ; retrieve measured GI50.
17.2

Param item = CCOC(=O)C1=C(C)NC(=S)NC1c1cccc(OC)c1 (stereo not drawn) ; retrieve measured GI50.
28.3

Param item = CCOC(=O)C1=C(C)NC(=S)N[C@H]1c1cccc(O)c1 ; retrieve measured GI50.
29.6

Param item = CCOC(=O)C1=C(C)NC(=S)NC1c1ccc(O)c(OC)c1 (stereo not drawn) ; retrieve measured GI50.
34.9

Param item = CCOC(=O)C1=C(C)NC(=O)NC1c1cccc(O)c1 (stereo not drawn) ; retrieve measured GI50.
27.1

Param item = CCOC(=O)C1=C(C)NC(=O)NC1c1ccc(O)cc1 (stereo not drawn) ; retrieve measured GI50.
28.7

Param item = CCOC(=O)C1=C(C)NC(=O)NC1c1ccc2c(c1)OCO2 (stereo not drawn) ; retrieve measured GI50.
29.9

Param item = CCOC(=O)C1=C(C)NC(=O)NC1c1ccc(OC)cc1 (stereo not drawn) ; retrieve measured GI50.
28.3

Param item = CCOC(=O)C1=C(C)NC(=S)NC1c1ccc(O)c(O)c1 (stereo not drawn) ; retrieve measured GI50.
22.7

Param item = CCOC(=O)C1=C(C)NC(=S)NC1C1CCCCC1 (stereo not drawn) ; retrieve measured GI50.
25.2

Param item = CCOC(=O)C1=C(C)NC(=O)NC1c1ccc(O)c(OC)c1 (stereo not drawn) ; retrieve measured GI50.
28.1

Param item = CCOC(=O)C1=C(C)NC(=O)NC1c1ccc(F)cc1 (stereo not drawn) ; retrieve measured GI50.
25.3

Param item = CCOC(=O)C1=C(C)NC(=S)NC1c1ccccc1 (stereo not drawn) ; retrieve measured GI50.
29.8

Param item = CCOC(=O)C1=C(C)NC(=S)NC1c1ccc2c(c1)OCO2 (stereo not drawn) ; retrieve measured GI50.
31.4

* * *

System: U-251
method_summary: Growth inhibition of human U251 cells after 48 hrs by sulforhodamine B assay
Type: functional
condition_set: U-251, 48 h
observed_property: GI50 (µg/mL)
Your answer should be a plain number; it is taken to be in µg/mL.

Param item = CCOC(=O)C1=C(C)NC(=S)NC1c1ccc2c(c1)OCO2 (stereo not given) ; retrieve measured GI50.
25.9

Param item = CCOC(=O)C1=C(C)NC(=S)NC1c1ccc(OC)cc1 (stereo not given) ; retrieve measured GI50.
29

Param item = CCOC(=O)C1=C(C)NC(=S)NC1c1cccc(OC)c1 (stereo not given) ; retrieve measured GI50.
28.1

Param item = CCOC(=O)C1=C(C)NC(=O)NC1c1ccc2c(c1)OCO2 (stereo not given) ; retrieve measured GI50.
34.9

Param item = CCOC(=O)C1=C(C)NC(=O)NC1c1ccc(F)cc1 (stereo not given) ; retrieve measured GI50.
23.5

* * *

I'd be grateful if you could share measured GI50 for these entries.
Test system: HT-29
method_summary: Growth inhibition of human HT-29 cells after 48 hrs by sulforhodamine B assay
Assay type: functional
condition_set: HT-29, 48 h

Recorded GI50 for CCOC(=O)C1=C(C)NC(=S)NC1c1ccc(O)cc1 (stereo not drawn) with HT-29, please?
> 250 µg/mL

Recorded GI50 for CCOC(=O)C1=C(C)NC(=O)NC1C1CCCCC1 (stereo not drawn) with HT-29, please?
> 250 µg/mL

Recorded GI50 for CCOC(=O)C1=C(C)NC(=O)NC1c1ccccc1 (stereo not drawn) with HT-29, please?
> 250 µg/mL
